Overview of reported IC50 across a group of molecules:
Test system: H358 (G12C) cells
Assay: Cell viability assay (CELLTITER-GLO), H358 cells
Type: cell-based
Conditions: Homo sapiens, NCI-H358, 72 h, 3 days incubation, 2.5% fetal bovine serum, read-out: Inhibition of Cancerous Cells IC50 (μM) H358 (G12C)
The answer is to be given in µM; state only the numeric part.

Cc1nn2c(N3CCN(CCO)CC3)cc(-c3cccc(CCCN4CCN(C(=O)CNc5cccc(C6CCC(=O)NC6=O)c5)CC4)c3)nc2c1-c1ccccc1 (stereo not drawn) [Compound B4]    1.1
Cc1nn2c(N3CCN(CCO)CC3)cc(-c3ccccc3)nc2c1-c1cccc(CCCCCN2CCN(C(=O)COc3ccc(N4CCC(=O)NC4=O)cc3)CC2)c1 [Compound C7]    1.1
Cc1nn2c(N3CCN(CCO)CC3)cc(-c3ccccc3)nc2c1-c1cccc(CCCCCCCN2CCN(C(=O)CNc3ccc4c(N5CCC(=O)NC5=O)nn(C)c4c3)CC2)c1 [Compound D15]    1.3
Cc1nn2c(N3CCN(CCO)CC3)cc(-c3ccccc3)nc2c1-c1cccc(CCCCCCCN2CCN(C(=O)COc3ccc(N4CCC(=O)NC4=O)cc3)CC2)c1 [Compound C8]    1.1
Cc1nn2c(N3CCN(CCO)CC3)cc(-c3ccccc3)nc2c1-c1cccc(CCCCCCCCCN2CCN(C(=O)COc3cccc(N4CCC(=O)NC4=O)c3)CC2)c1 [Compound C12]    1.4

Let us move to another entry and its IC50.
Query: Sample Cc1nn2c(N3CCN(CCO)CC3)cc(-c3cccc(CCCCCN4CCN(C(=O)CNc5ccc6c(C7CCC(=O)NC7=O)nn(C)c6c5)CC4)c3)nc2c1-c1ccccc1 (stereo not drawn) [Compound D2] — what was its IC50?
Result: 0.82
